System: SKBR3 (PI3Kα-Wild Type) cell line
Experiment Summary: HTRF phospho-AKT(S473) cell assay in SKBR3 cells
Type: cell-based, human
Condition Parameters: Homo sapiens, SK-BR-3; SKBR3 (PI3Kα-Wild Type) cells, HTRF phospho-AKT(S473), 2 hours compound incubation, PDGF-BB stimulated
Experimental: Compounds in the present disclosure were tested in a cell based HTRF phospho-AKT(S473) (CisBio/Revvity) assay in human breast cancer cell lines as a measurement of PIK3CA activity through measuring AKT, a downstream effector. The activity of mutant PI3Kα-H1047R and PI3Kα-Wild Type was measured in the T47D (PI3Kα-H1047R) and SKBR3 (PI3Kα-Wild Type) cell lines, respectively. […] The following day, plates were centrifuged for 1 minute at 1000 rpm, and read on a PHERAstar plate reader. […]
Measured Parameter: IC50

Query: If you can, please state the reported IC50 value of Cc1cc([C@@H](C)Nc2ccc(Cl)nc2C(=O)NS(C)(=O)=O)c2nc(N3CCC(c4cnc(C)c(F)c4)CC3)n(C)c(=O)c2c1 .
Result: 1 to 5 µM

Query: If you can, please state the reported IC50 value of Cc1cc([C@@H](C)Nc2ccc(Cl)nc2C(=O)NS(C)(=O)=O)c2nc(N3CCC(c4cc(F)cnc4C)CC3)n(C)c(=O)c2c1 .
Result: 1 to 5 µM

Query: If you can, please state the reported IC50 value of Cc1cc([C@H](C)Nc2cn(C)nc2C(=O)NS(C)(=O)=O)c2nc(N3Cc4ccc(F)cc4C3)n(C)c(=O)c2c1 (single isomer, unassigned) .
Result: ≥ 5 µM

Query: If you can, please state the reported IC50 value of Cc1cc([C@@H](C)Nc2ccc(Cl)nc2C(=O)NS(C)(=O)=O)c2nc(N3[C@@H]4CC[C@H]3C[C@H](c3ccn(C)n3)C4)n(C)c(=O)c2c1 .
Result: 1 to 5 µM

Query: If you can, please state the reported IC50 value of Cc1cc([C@@H](C)Nc2ccc(Cl)nc2C(=O)NS(C)(=O)=O)c2nc(N3Cc4cn(-c5ccc(C#N)cn5)nc4C3)n(C)c(=O)c2c1 .
Result: 1 to 5 µM

Now for a further compound.
Query: If you can, please state the reported IC50 value of Cc1cc([C@@H](C)Nc2ccc(Cl)nc2C(=O)NS(C)(=O)=O)c2nc(N3CCC(c4ccn(C(C)C)n4)CC3)n(C)c(=O)c2c1 .
Result: 1 to 5 µM

====

Tested on: SKBR3 (PI3Kα-Wild Type) cell line
Experiment Summary: HTRF phospho-AKT(S473) cell assay in SKBR3 cells
Format: cell-based, human
Condition Parameters: Homo sapiens, SK-BR-3; SKBR3 (PI3Kα-Wild Type) cells, HTRF phospho-AKT(S473), 2 hours compound incubation, PDGF-BB stimulated
Protocol: Compounds in the present disclosure were tested in a cell based HTRF phospho-AKT(S473) (CisBio/Revvity) assay in human breast cancer cell lines as a measurement of PIK3CA activity through measuring AKT, a downstream effector. The activity of mutant PI3Kα-H1047R and PI3Kα-Wild Type was measured in the T47D (PI3Kα-H1047R) and SKBR3 (PI3Kα-Wild Type) cell lines, respectively. […] The following day, plates were centrifuged for 1 minute at 1000 rpm, and read on a PHERAstar plate reader. […]
pIC50: −log10 of the molar value.
Kindly state pIC50 for each of the entries shown.

Would you please look over these solved cases?
Query: If you can, please state the reported pIC50 value of Cc1cc([C@@H](C)Nc2ccc(Cl)nc2C(=O)NS(C)(=O)=O)c2nc(N3CCC(c4nn(C)c(C)c4F)CC3)n(C)c(=O)c2c1 .
Result: ≤ 5.30

Query: If you can, please state the reported pIC50 value of Cc1cc([C@@H](C)Nc2ccc(F)cc2C(=O)NS(C)(=O)=O)c2nc(N3CCC(F)(F)CC3)n(C)c(=O)c2c1 .
Result: 5.30 to 6.00

Query: If you can, please state the reported pIC50 value of Cc1cc([C@@H](C)Nc2ccc(Cl)nc2C(=O)NS(C)(=O)=O)c2nc(N3CCC(c4n[nH]cc4F)CC3)n(C)c(=O)c2c1 .
Result: 5.30 to 6.00

Quick batch: pIC50 for everything below.
1. C[C@@H](Nc1ccc(Cl)nc1C(=O)NS(C)(=O)=O)c1cc(F)cc2c(=O)n(C)c(-c3cncc(F)c3)nc12
2. Cc1cc([C@@H](C)Nc2ccc(Cl)nc2C(=O)NS(C)(=O)=O)c2nc(N3CC4(COC4)C3)n(C)c(=O)c2c1
3. Cc1cc([C@@H](C)Nc2ccc(Cl)nc2C(=O)NS(C)(=O)=O)c2nc(-c3ccc(Nc4ccccc4C)nc3)n(C)c(=O)c2c1
4. Cc1cc([C@@H](C)Nc2ccc(Cl)nc2C(=O)NS(C)(=O)=O)c2nc(N3CCC(c4nn(C)cc4C)CC3)n(C)c(=O)c2c1
5. Cc1cc([C@@H](C)Nc2ccc(Cl)nc2C(=O)NS(C)(=O)=O)c2nc(N3CCN(c4cnc(C)nc4)CC3)n(C)c(=O)c2c1
6. Cc1cc([C@@H](C)Nc2ccc(Cl)nc2C(=O)NS(C)(=O)=O)c2nc(N3C[C@H]4C[C@@H]3C[C@H]4c3ccn(C)n3)n(C)c(=O)c2c1 (relative stereo)

Result:
5.30 to 6.00
5.30 to 6.00
≤ 5.30
5.30 to 6.00
5.30 to 6.00
5.30 to 6.00

====

Test system: SKBR3 (PI3Kα-Wild Type) cell line
Experiment Summary: HTRF phospho-AKT(S473) cell assay in SKBR3 cells
Format: cell-based, human
Condition Parameters: Homo sapiens, SK-BR-3; HTRF phospho-AKT(S473), SKBR3 (PI3Kα-Wild Type) cells, 2 hours compound incubation, PDGF-BB stimulated
Kindly state IC50 for each of the entries shown.

Query: If you can, please state the reported IC50 value of Cc1cc([C@@H](C)Nc2ccc(Cl)nc2C(=O)NS(C)(=O)=O)c2nc(N3C[C@@H]4[C@H](C3)[C@H]4c3cn(CC(F)(F)F)nn3)n(C)c(=O)c2c1 .
Result: 1000 to 5000 nM

Query: If you can, please state the reported IC50 value of Cc1cc([C@@H](C)Nc2ccc(Cl)nc2C(=O)NS(C)(=O)=O)c2nc(N3CCC(n4nncc4C)CC3)n(C)c(=O)c2c1 .
Result: 1000 to 5000 nM

Continuing:
Query: If you can, please state the reported IC50 value of Cc1cc([C@@H](C)Nc2ccc(Cl)nc2C(=O)NS(C)(=O)=O)c2nc(N3C[C@@H]4C[C@H]3CN4c3nccnc3C)n(C)c(=O)c2c1 .
Result: 1000 to 5000 nM

====

Target Under Test: PI3Kα H1047R (Homo sapiens, UniProt P42336, H1047R)
Sequence (P42336 whole entry H1047R): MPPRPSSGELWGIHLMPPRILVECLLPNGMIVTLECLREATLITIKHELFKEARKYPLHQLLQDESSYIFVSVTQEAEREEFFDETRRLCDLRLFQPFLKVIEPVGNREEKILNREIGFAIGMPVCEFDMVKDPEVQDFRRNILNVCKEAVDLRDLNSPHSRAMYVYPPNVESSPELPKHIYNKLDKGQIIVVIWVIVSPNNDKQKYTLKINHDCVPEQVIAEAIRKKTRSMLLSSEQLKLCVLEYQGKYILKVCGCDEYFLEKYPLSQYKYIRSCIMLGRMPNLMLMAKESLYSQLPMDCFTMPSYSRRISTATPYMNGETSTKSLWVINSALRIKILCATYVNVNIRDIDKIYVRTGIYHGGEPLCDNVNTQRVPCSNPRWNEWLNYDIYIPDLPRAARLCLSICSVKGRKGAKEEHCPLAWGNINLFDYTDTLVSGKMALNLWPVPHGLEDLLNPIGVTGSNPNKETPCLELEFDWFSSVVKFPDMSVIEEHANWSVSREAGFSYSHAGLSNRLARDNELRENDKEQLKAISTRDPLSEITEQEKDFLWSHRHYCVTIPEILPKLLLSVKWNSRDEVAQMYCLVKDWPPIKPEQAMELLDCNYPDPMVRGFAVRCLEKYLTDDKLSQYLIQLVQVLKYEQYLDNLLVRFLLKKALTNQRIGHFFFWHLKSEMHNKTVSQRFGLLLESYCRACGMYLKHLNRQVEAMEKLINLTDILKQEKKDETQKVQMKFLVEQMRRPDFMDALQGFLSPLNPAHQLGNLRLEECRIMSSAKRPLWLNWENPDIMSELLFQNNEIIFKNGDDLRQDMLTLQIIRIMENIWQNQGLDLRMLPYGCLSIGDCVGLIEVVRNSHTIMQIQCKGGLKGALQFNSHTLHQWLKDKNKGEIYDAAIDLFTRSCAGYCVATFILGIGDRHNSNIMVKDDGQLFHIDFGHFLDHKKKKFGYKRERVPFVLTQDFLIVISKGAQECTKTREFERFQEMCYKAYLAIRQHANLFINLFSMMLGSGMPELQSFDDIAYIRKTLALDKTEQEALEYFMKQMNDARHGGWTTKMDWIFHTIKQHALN
Sequence (P27986 2-724 partner): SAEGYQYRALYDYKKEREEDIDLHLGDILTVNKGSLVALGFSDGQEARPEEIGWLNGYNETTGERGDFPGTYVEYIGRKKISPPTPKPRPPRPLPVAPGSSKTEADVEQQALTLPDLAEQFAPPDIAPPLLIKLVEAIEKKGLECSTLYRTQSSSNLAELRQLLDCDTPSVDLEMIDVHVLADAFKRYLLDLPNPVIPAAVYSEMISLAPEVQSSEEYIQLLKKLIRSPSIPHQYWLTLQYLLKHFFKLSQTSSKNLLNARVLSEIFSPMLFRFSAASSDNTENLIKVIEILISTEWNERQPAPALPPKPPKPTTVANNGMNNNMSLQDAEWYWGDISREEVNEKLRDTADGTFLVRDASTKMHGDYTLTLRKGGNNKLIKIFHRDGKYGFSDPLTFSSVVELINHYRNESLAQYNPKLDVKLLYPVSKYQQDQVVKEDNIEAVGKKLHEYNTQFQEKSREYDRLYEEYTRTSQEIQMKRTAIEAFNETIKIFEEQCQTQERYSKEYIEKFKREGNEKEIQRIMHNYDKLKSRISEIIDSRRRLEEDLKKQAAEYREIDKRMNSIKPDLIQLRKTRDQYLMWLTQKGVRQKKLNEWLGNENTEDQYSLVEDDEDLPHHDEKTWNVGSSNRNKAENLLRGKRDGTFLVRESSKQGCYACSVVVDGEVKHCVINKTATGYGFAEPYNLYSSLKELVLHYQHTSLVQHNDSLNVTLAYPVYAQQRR
Experiment Summary: PI3Kα H1047R enzyme assay (Transcreener ADP2 TR-FRET Red Assay)
Format: biochemical
Condition Parameters: purified recombinant full-length protein; 2 hours pre-incubation with compound
Measured Parameter: IC50

Would you please look over these solved cases?
Query: If you can, please state the reported IC50 value of Cc1cc([C@@H](C)Nc2cc(C)c(Cl)nc2C(=O)NS(C)(=O)=O)c2nc(N3Cc4ccc(F)cc4C3)n(C)c(=O)c2c1 [Compound 35] .
Result: ≥ 1000 nM

Query: If you can, please state the reported IC50 value of C[C@@H](Nc1ccc(Cl)nc1C(=O)NS(C)(=O)=O)c1cc(F)cc2c(=O)n(C)c(N3CC4CC4C3)nc12 (some centres unmarked) [Compound 29] .
Result: 250 to 500 nM

Query: If you can, please state the reported IC50 value of Cc1cc([C@@H](C)Nc2ccc(F)cc2C(=O)NS(C)(=O)=O)c2nc(N3CCC(F)(F)CC3)n(C)c(=O)c2c1 [Compound 62] .
Result: < 100 nM

Quick batch: IC50 for everything below.
1. Cc1cc([C@@H](C)Nc2ccc(Cl)nc2S(=O)(=O)NC(=O)C(C)C)c2nc(N3Cc4ccc(F)cc4C3)n(C)c(=O)c2c1 [Compound 80]
2. Cc1cc([C@@H](C)Nc2cc(C)c(F)nc2C(=O)NS(C)(=O)=O)c2nc(N3Cc4ccc(F)cc4C3)n(C)c(=O)c2c1 [Compound 69]
3. Cc1cc([C@@H](C)Nc2ccc(Cl)nc2C(=O)NS(C)(=O)=O)c2nc(OCc3ccccc3)n(C)c(=O)c2c1 [Compound 50]
4. C[C@@H](Nc1ccc(Cl)nc1C(=O)NS(C)(=O)=O)c1cc(F)cc2c(=O)n(C)c(N3CCC(F)(F)CC3)nc12 [Compound 3]
5. Cc1cc([C@@H](C)Nc2ccc(Cl)nc2C(=O)NS(C)(=O)=O)c2nc(N(C)Cc3cnn(C)c3)n(C)c(=O)c2c1 [Compound 48]

Result:
["100 to 250 nM", "≥ 1000 nM", "250 to 500 nM", "250 to 500 nM", "100 to 250 nM"]

Quick batch: IC50 for everything below.
1. Cc1cc([C@@H](C)Nc2ccc(Cl)nc2C(=O)NS(C)(=O)=O)c2nc(NCCC3CC3)n(C)c(=O)c2c1 [Compound 18]
2. CC(=O)NS(=O)(=O)c1nc(Cl)ccc1N[C@H](C)c1cc(C)cc2c(=O)n(C)c(N3Cc4ccc(F)cc4C3)nc12 [Compound 74]
3. C[C@@H](Nc1ccc(Cl)nc1C(=O)NS(C)(=O)=O)c1cc(F)cc2c(=O)n(C)c(N3Cc4ccc(F)cc4C3)nc12 [Compound 66]
4. Cc1cc([C@@H](C)Nc2ccc(Cl)nc2C(=O)NS(C)(=O)=O)c2nc(-c3cccc(F)c3F)n(C)c(=O)c2c1 [Compound 82]

Result:
≥ 1000 nM
100 to 250 nM
100 to 250 nM
≥ 1000 nM

Quick batch: IC50 for everything below.
1. C[C@@H](Nc1cccnc1C(=O)NS(C)(=O)=O)c1cccc2c(=O)n(C)c(N3Cc4ccc(F)cc4C3)nc12 [Compound 59]
2. Cc1cc([C@@H](C)Nc2ccc(Cl)nc2C(=O)NS(C)(=O)=O)c2nc(N(C)C34CC(C3)C4)n(C)c(=O)c2c1 [Compound 13]
3. Cc1cc([C@@H](C)Nc2ccc(Cl)nc2C(=O)NS(C)(=O)=O)c2nc(N3CCc4ccccc4[C@H]3C)n(C)c(=O)c2c1 (mixture of isomers) [Compound 19]
4. Cc1cc([C@@H](C)Nc2ccccc2S(N)(=O)=O)c2nc(N3Cc4ccc(F)cc4C3)n(C)c(=O)c2c1 (single isomer, unassigned) [Compound 104]
5. Cc1cc([C@@H](C)Nc2ccc(Cl)nc2C(=O)NS(C)(=O)=O)c2nc(N3CCO[C@@H](C)C3)n(C)c(=O)c2c1 [Compound 36]

Result:
["≥ 1000 nM", "500 to 1000 nM", "≥ 1000 nM", "≥ 1000 nM", "≥ 1000 nM"]
